Subject of test: STAT6 (Homo sapiens, UniProt P42226)
Construct: endogenous in cells; host or cells: MOLM-16, KU-812, SKNO1, MB231, L1236
Sequence (P42226 whole entry): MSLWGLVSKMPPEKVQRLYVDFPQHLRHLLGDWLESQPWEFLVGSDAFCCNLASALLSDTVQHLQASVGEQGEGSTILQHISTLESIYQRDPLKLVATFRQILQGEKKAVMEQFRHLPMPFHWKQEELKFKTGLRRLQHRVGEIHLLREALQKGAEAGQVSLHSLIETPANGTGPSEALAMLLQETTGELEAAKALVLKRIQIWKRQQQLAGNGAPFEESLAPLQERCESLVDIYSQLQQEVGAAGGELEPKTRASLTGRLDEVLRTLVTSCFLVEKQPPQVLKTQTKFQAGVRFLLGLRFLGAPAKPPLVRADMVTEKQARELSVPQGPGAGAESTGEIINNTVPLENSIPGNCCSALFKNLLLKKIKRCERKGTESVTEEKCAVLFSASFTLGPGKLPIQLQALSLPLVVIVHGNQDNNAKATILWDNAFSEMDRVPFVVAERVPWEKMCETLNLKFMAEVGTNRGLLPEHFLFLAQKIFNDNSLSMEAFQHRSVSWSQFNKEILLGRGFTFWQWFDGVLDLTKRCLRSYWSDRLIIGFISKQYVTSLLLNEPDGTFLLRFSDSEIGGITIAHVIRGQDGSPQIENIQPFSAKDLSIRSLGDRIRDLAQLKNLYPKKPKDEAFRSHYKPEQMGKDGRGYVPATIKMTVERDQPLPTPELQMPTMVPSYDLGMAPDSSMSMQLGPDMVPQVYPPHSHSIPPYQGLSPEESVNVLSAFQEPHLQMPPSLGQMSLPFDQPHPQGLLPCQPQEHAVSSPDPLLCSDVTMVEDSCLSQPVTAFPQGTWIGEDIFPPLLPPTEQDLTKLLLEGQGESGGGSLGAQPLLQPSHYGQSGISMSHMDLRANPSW
Procedure details: Immunoblotting (Western blot) analysis of STAT6 degradation efficiency of degraders in treated cells
Assay type: cell-based
Applied conditions: MOLM-16 cells, class symbols, read-out: DC50 S6 MOLM-16
Method: Evaluation of the degradation efficiency of degraders may be accomplished by immunoblotting analysis. The representative general protocol is the following: Cells are maintained in the appropriate culture medium with 10% FBS at 37° C. and an atmosphere of 5% CO2. Cell lines are used within three months of thawing fresh vials. […] The intensity of Western blot signaling is quantitated using the Odyssey software. […]
Measurement label: DC50

CC(C)(C)[C@H](NC(=O)c1cc2cc(C(F)(F)P(=O)(O)O)ccc2s1)C(=O)N1CCN(C(=O)CC(=O)NCCCC#Cc2cccc3c2C(=O)N(C2CCC(=O)NC2=O)C3=O)C[C@H]1C(=O)N1CCO[C@H](c2ccccc2)C1 (some centres unmarked)    1 to 10 µM
CC(C)(C)[C@H](NC(=O)c1cc2cc(C(F)(F)P(=O)(O)O)ccc2s1)C(=O)N1Cc2cc(OCC(=O)NCCCCCC#Cc3ccc4c(c3)C(=O)N(C3CCC(=O)NC3=O)C4=O)ccc2C[C@H]1C(=O)N1CCO[C@H](c2ccccc2)C1 (some centres unmarked)    > 10 µM
CC(C)(C)[C@H](NC(=O)c1cc2cc(C(F)(F)P(=O)(O)O)ccc2s1)C(=O)N1CCN(C(=O)CC(=O)NCCCCCCCCCC#Cc2cccc3c2C(=O)N(C2CCC(=O)NC2=O)C3=O)C[C@H]1C(=O)N1CCC[C@H](c2ccccc2)C1 (some centres unmarked)    > 10 µM

Q) Notebook entry, STAT6 (Homo sapiens, UniProt P42226) assay: DC50 of CC(C)(C)[C@H](NC(=O)c1cc2cc(C(F)(F)P(=O)(O)O)ccc2s1)C(=O)N1CCN(C(=O)CC(=O)NCCCCC#Cc2cccc3c2C(=O)N(C2CCC(=O)NC2=O)C3=O)C[C@H]1C(=O)N1CCO[C@H](c2ccccc2)C1 (some centres unmarked) = ?
A) > 10 µM

Q) And then CC(C)(C)[C@H](NC(=O)c1cc2cc(C(F)(F)P(=O)(O)O)ccc2s1)C(=O)N1C[C@@H](OCC(=O)NCC#Cc2cccc3c2C(=O)N(C2CCC(=O)NC2=O)C3=O)C[C@H]1C(=O)N1CCC[C@H](c2ccccc2)C1 (some centres unmarked) , what is it?
A) > 10 µM

Q) Repeat for the following molecule: CC(C)(C)[C@H](NC(=O)c1cc2cc(C(F)(F)P(=O)(O)O)ccc2s1)C(=O)N1CCN(C(=O)CC(=O)NCCCC#Cc2ccc3c(c2)C(=O)N(C2CCC(=O)NC2=O)C3=O)C[C@H]1C(=O)N1CCO[C@H](c2ccccc2)C1 (some centres unmarked)
A) 0.1 to 1 µM

Q) Another molecule to check: CC(C)(C)[C@H](NC(=O)c1cc2cc(C(F)(F)P(=O)(O)O)ccc2s1)C(=O)N1Cc2cc(OCC(=O)NCCCC#Cc3cccc4c3C(=O)N(C3CCC(=O)NC3=O)C4=O)ccc2C[C@H]1C(=O)N1CCO[C@H](c2ccccc2)C1 (some centres unmarked)
A) > 10 µM

Q) What do you get for "Cc1ncsc1-c1ccc([C@H](C)NC(=O)[C@@H]2C[C@@H](O)CN2C(=O)[C@@H](NC(=O)CCNC(=O)CC(=O)N2CCN(C(=O)[C@@H](NC(=O)c3cc4cc(C(F)(F)P(=O)(O)O)ccc4s3)C(C)(C)C)[C@H](C(=O)N3CCO[C@H](c4ccccc4)C3)C2)C(C)(C)C)cc1" ?
A) > 10 µM

* * *

Subject of test: STAT6 (Homo sapiens)
Construct: endogenous in cells; host or cells: MOLM-16, KU-812, SKNO1, MB231, L1236
Procedure details: Immunoblotting (Western blot) analysis of STAT6 degradation efficiency of degraders in treated cells
Type: cell-based
Applied conditions: MOLM-16 cells, numeric bound, read-out: DC50 S6 MOLM-16
Measurement label: DC50

Please review the entries below; each comes with its answer.
CN(CCCC#Cc1cccc2c1CN(C1CCC(=O)NC1=O)C2=O)C(=O)CCN(C(=O)[C@@H]1CCCN1C(=O)[C@@H](NC(=O)c1cc2cc(C(F)(F)P(=O)(O)OCOC(=O)C(C)(C)C)ccc2s1)C(C)(C)C)c1ccc(Br)cc1 (some centres unmarked) [Compound 677]    > 0.3 µM
CC(C)(C)[C@H](NC(=O)c1cc2cc(C(F)(F)P(=O)(O)O)ccc2s1)C(=O)N1CCC[C@H]1C(=O)N(CCC(=O)NCCCC#Cc1cccc2c1CN(C1CCC(=O)NC1=O)C2=O)c1ccc2c(c1)CCCO2 (some centres unmarked) [Compound 669]    > 0.3 µM
CC(C)(C)[C@H](NC(=O)c1cc2cc(C(F)(F)P(=O)(O)O)ccc2s1)C(=O)N1C[C@@H](OCCCCCCNc2cccc3c2CN(C2CCC(=O)NC2=O)C3=O)C[C@H]1C(=O)N1CCO[C@H](c2ccccc2)C1 (some centres unmarked) [Compound 599]    > 0.3 µM
CC(C)(C)[C@H](NC(=O)c1cc2cc(C(F)(F)P(=O)(O)O)ccc2s1)C(=O)N1CCC[C@H]1C(=O)N(CCC(=O)NCCCC#Cc1cccc2c1CN(C1CCC(=O)NC1=O)C2=O)c1ccc(-c2ccccc2)cc1 (some centres unmarked) [Compound 663]    > 0.3 µM
CC(C)(C)[C@H](NC(=O)c1cc2cc(C(F)(F)P(=O)(O)O)ccc2s1)C(=O)N1C[C@@H](OCCCCCCC#Cc2cccc3c2CN(C2CCC(=O)NC2=O)C3=O)C[C@H]1C(=O)N1CCOC(c2cccs2)C1 (some centres unmarked) [Compound 611]    > 0.3 µM

Q) What value of DC50 has been recorded for this entry: CC(C)(C)[C@H](NC(=O)c1cc2cc(C(F)(F)P(=O)(O)O)ccc2s1)C(=O)N1C[C@@H](OCCN2CCC(C#Cc3cccc4c3CN(C3CCC(=O)NC3=O)C4=O)CC2)C[C@H]1C(=O)N1CCO[C@H](c2ccccc2)C1 (some centres unmarked) [Compound 604]
A) > 0.3 µM

Q) Would you mind doing Cc1ncsc1-c1ccc([C@H](CC(=O)NCCCCCCCCCC(=O)N[C@@H]2C[C@@H](C(=O)Nc3ncc(-c4ccccc4)s3)N(C(=O)[C@@H](NC(=O)c3cc4cc(C(F)(F)P(=O)(O)O)ccc4s3)C(C)(C)C)C2)NC(=O)[C@@H]2C[C@@H](O)CN2C(=O)[C@@H](NC(=O)C2(F)CC2)C(C)(C)C)cc1 [Compound 579] as well?
A) > 0.3 µM

Q) Param item: CN(CCCC#Cc1cccc2c1CN(C1CCC(=O)NC1=O)C2=O)C(=O)CCN(C(=O)[C@@H]1CCCN1C(=O)[C@@H](NC(=O)c1cc2cc(C(F)(F)P(=O)(O)OCOC(=O)C(C)(C)C)ccc2s1)C(C)(C)C)c1ccc2ccccc2c1 (some centres unmarked) [Compound 673]
A) > 0.3 µM

* * *

Subject of test: STAT6 (Homo sapiens, UniProt P42226)
Construct: endogenous in cells; host or cells: MOLM-16, KU-812, SKNO1, MB231, L1236
Procedure details: Immunoblotting (Western blot) analysis of STAT6 degradation efficiency of degraders in treated cells
Format: cell-based
Applied conditions: MOLM-16 cells, class symbols, read-out: DC50 S6 MOLM-16
Measurement label: DC50

// solved cases for DC50 follow
CC(C)(C)[C@H](NC(=O)c1cc2cc(C(F)(F)P(=O)(O)O)ccc2s1)C(=O)N1C[C@@H](OCC(=O)NCCCCCC#Cc2cccc3c2C(=O)N(C2CCC(=O)NC2=O)C3=O)C[C@H]1C(=O)N1CCO[C@H](c2ccccc2)C1 (stereo partly shown) [Compound 487]    > 10 µM
CN(CCCC#Cc1cccc2c1CN(C1CCC(=O)NC1=O)C2=O)C(=O)CCN(C(=O)[C@@H]1CCCN1C(=O)[C@@H](NC(=O)c1cc2cc(C(F)(F)P(=O)(O)OCOC(=O)C(C)(C)C)ccc2s1)C(C)(C)C)c1ccc(-c2nccs2)cc1 (stereo partly shown) [Compound 679]    > 10 µM
CC(C)(C)[C@H](NC(=O)c1cc2cc(C(F)(F)P(=O)(O)O)ccc2s1)C(=O)N1C[C@@H](OCC(=O)NCCCCC#Cc2cccc3c2C(=O)N(C2CCC(=O)NC2=O)C3=O)C[C@H]1C(=O)N1CCC[C@H](c2ccccc2)C1 (stereo partly shown) [Compound 499]    > 10 µM

Now for another entry.
Q) Can you look up the measured DC50 of CC(C)(C)[C@H](NC(=O)c1cc2cc(C(F)(F)P(=O)(O)O)ccc2s1)C(=O)N1Cc2cc(OCC(=O)NCC#Cc3ccc4c(c3)C(=O)N(C3CCC(=O)NC3=O)C4=O)ccc2C[C@H]1C(=O)N1CCC[C@H](c2ccccc2)C1 (stereo partly shown) [Compound 550] for me?
A) > 10 µM
